Target: T1, sIL-6R (soluble IL-6 receptor; SBH Sciences) (human, UniProt P08887 20-365)
T1 construct: also called human IL-6R
T1 sequence: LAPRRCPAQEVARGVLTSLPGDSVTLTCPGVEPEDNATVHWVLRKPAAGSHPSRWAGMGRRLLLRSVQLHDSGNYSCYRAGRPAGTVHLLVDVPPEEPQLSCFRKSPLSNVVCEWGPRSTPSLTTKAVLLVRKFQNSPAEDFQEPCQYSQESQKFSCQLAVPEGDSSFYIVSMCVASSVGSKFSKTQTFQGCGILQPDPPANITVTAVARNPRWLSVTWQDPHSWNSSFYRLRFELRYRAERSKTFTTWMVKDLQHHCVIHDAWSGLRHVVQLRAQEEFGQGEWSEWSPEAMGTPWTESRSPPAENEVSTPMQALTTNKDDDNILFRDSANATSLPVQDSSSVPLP
Assay: SPR (BIAcore 3000), antibody on chip, sIL-6R analyte, 25 C
The following binders are shown together with reported kon values.
Give just the number in M⁻¹ s⁻¹; leave the unit off.

Recorded results for 2 binders are shown here.
- 9# (antibody, human IgG1, kappa, V domains shown, also called Sample # 9) VH: QVQLQESGPGLVRPSQTLSLTCTVSGYSITSDHAWSWVRQPPGRGLEWIGYISYSGIITYNASLKSRVTMLRDTSKNQFSLRLSSVTAADTAVYYCARCLARTTAMDYWGQGSLVTVSS VL: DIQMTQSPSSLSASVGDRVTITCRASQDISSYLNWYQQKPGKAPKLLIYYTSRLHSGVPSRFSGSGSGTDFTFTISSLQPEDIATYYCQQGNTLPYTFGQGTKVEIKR: 239000
- 5# (antibody, human IgG1, kappa, V domains shown, also called Sample # 5) VH: QVQLQESGPGLVRPSQTLSLTCTVSGYSITSDHAWSWVRQPPGRGLEWIGFISYSGITTYNPSLKSRVTMLRDTSKNQFSLRLSSVTAADTAVYYCARSLARTTAMDYWGQGSLVTVSS VL: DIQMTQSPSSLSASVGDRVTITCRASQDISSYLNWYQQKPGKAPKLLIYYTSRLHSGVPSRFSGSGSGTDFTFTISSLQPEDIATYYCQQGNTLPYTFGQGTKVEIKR: 266000

Here is the next item to consider.
Please look up its kon: 11# (antibody, human IgG1, kappa, V domains shown, also called Sample # 11) VH: QVQLQESGPGLVRPSQTLSLTCTVSGYSITSDHAWSWVRQPPGRGLEWIGFISYSGITTYNPSLKSRVTMLRDTSKNQFSLRLSSVTAADTAVYYCARSLARATAMDYWGQGSLVTVSS VL: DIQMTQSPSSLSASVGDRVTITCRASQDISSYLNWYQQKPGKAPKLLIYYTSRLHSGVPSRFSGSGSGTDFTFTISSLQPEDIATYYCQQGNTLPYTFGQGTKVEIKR 275000
